tested on: Escherichia coli ED1a; test: growth AUC relative to DMSO control (median of replicates) (fraction); higher = more growth (less inhibition), active = hit call of the paper; conditions: 20 µM; 24 h
Would you mind labelling by growth AUC? At or over 1 is TRUE, under is FALSE.

Task: Does the reported growth AUC for O=C(Nc1ccccc1)Nc1ccnc(Cl)c1 fall at or above the 1 mark?
Result: FALSE

Task: CNC(=O)Oc1cc(C)cc(C(C)C)c1 , same question.
Result: FALSE

Task: Follow-up entry: CC(C)N1C(=O)N(c2ccccc2)CSC1=NC(C)(C)C
Result: FALSE

Task: // same read-out, input: Nc1cccc(Cl)c1Cl
Result: TRUE

---

tested on: Parabacteroides merdae; assay: growth AUC relative to DMSO control (median of replicates) (fraction); higher = more growth (less inhibition), active = hit call of the paper; settings: 20 µM; 24 h;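 active = AUC reduced over 20% with Padj below 0.05 in at least 2 of 3 replicates; inactive = otherwise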
Your response should consist of one outcome taken from active, inactive

Task: Kindly provide the recorded test outcome for the following molecule: CCN(CC)C(=O)SCc1ccc(Cl)cc1
Result: inactive

Task: Then NC(=S)c1c(Cl)cccc1Cl ?
Result: inactive

Task: # iterate: CNC(=O)Oc1cccc2c1OC(C)(C)C2
Result: inactive

Task: What do you get for CCCN(CCCl)c1c([N+](=O)[O-])cc(C(F)(F)F)cc1[N+](=O)[O-] ?
Result: inactive

Task: Again, but for O=c1oc2ccccc2c(O)c1C(CC(O)c1ccc(-c2ccc(Br)cc2)cc1)c1ccccc1 (stereo not drawn)
Result: active

Task: Repeat with Cc1occc1C(=O)Nc1ccccc1
Result: inactive

Task: What about this molecule? CC1(C)CN=C(NN=C(/C=C/c2ccc(C(F)(F)F)cc2)/C=C/c2ccc(C(F)(F)F)cc2)NC1
Result: inactive

Task: One more molecule: COP(=S)(OC)Oc1ccc(C#N)cc1
Result: inactive

---

test system: Bacteroides clarus; experiment: growth AUC relative to DMSO control (median of replicates) (fraction); higher = more growth (less inhibition), active = hit call of the paper; conditions: 20 µM; 24 h
experimental.endpoint: growth AUC
// no unit string in output, number only

Task: # get_value(readout='growth AUC', item= Nc1ccncc1 )
Result: 0.997

Task: Also O=CNC(N1CCN(C(NC=O)C(Cl)(Cl)Cl)CC1)C(Cl)(Cl)Cl (centres undefined) ?
Result: 0.923

Task: Repeat for the following compound: COC(=O)C(C)N(C(=O)c1ccco1)c1c(C)cccc1C (centres undefined)
Result: 0.984

Task: Note, next up: CCOP(=O)(OCC)Oc1ccc(S(C)(=O)=O)cc1
Result: 0.995

Task: What do you get for Cc1[nH]c(=O)n(C(C)(C)C)c(=O)c1Cl ?
Result: 0.993

Task: What do you get for CC(C)N(C(=O)SCC(Cl)=C(Cl)Cl)C(C)C ?
Result: 1.02

Task: Then CCCOC(=O)c1ccccc1C(=O)OCCC ?
Result: 1.03

Task: Entry OC(c1ccc(Cl)cc1)(c1cncnc1)c1ccccc1Cl (centres undefined) please
Result: 0.887

Task: Now try COP(=S)(OC)SCN1C(=O)c2ccccc2C1=O .
Result: 0.966

Task: Try CC(C)(C)c1ccc(CCOc2ncnc3ccccc23)cc1 next.
Result: 0.973

Task: Similarly, c1cc2c3c(cccc3c1)CC2 ?
Result: 1

Task: Also need CCOC(=O)CCN(Cc1ccccc1)SN(C)C(=O)O/N=C(/C)SC , thanks.
Result: 0.979

Task: Another compound to check: CC1(C)[C@H](C(=O)O[C@H](C#N)c2cccc(Oc3ccccc3)c2)[C@@H]1/C=C\C(=O)OC(C(F)(F)F)C(F)(F)F
Result: 0.976

Task: Quick one: O=c1[nH]c2c(c(=O)n1C1CCCCC1)CCC2
Result: 0.944

Task: Another compound to look at: Oc1ccc(Cl)c(Cl)c1Cl
Result: 0.975

Task: Next compound: CCc1nn(C)c(C(=O)NCc2ccc(C(C)(C)C)cc2)c1Cl
Result: 0.929

Task: O=C(NC(=O)c1c(F)cccc1F)Nc1ccc(CO/N=C(\c2ccc(Cl)cc2)C2CC2)cc1 ?
Result: 0.955

Task: Could you do the same for O=S1(=O)OCC2C(CO1)C1(Cl)C(Cl)=C(Cl)C2(Cl)C1(Cl)Cl (centres undefined) , please?
Result: 0.945

Task: // same read-out, input: O=C(Nc1ccccc1)Nc1cnns1
Result: 0.921

Task: Let us now turn to COc1cc(OC)nc(NC(=O)NS(=O)(=O)c2ncccc2C(F)(F)F)n1
Result: 0.977

Task: What about O=C(O)c1cc(Cl)ccc1Cl ?
Result: 0.989

Task: Now consider CN(C)C(=S)[S-].CN(C)C(=S)[S-].[Zn+2] and answer again.
Result: 0.965

Task: // same read-out, input: CCOC(=O)C(SP(=S)(OC)OC)c1ccccc1 (centres undefined)
Result: 0.933

Task: Do the same for Nc1cc(Cl)ccc1Cl please
Result: 1.05

---

system: Bacteroides dorei; assay: growth AUC relative to DMSO control (median of replicates) (fraction); higher = more growth (less inhibition), active = hit call of the paper; conditions: 20 µM; 24 h
experimental.endpoint: growth AUC
Respond with the number and no other words.

Task: Please give the measured growth AUC for this compound: O=C1C[C@@H]2OCC=C3CN4CC[C@]56c7ccccc7N1[C@H]5[C@H]2[C@H]3C[C@H]46
Result: 0.93

Task: CCOC(=O)Nc1cccc(OC(=O)Nc2ccccc2)c1 ?
Result: 1

Task: Would you mind doing BrCCBr as well?
Result: 1.02

Task: Moving on to the next compound: CC(C)=CC1C(C(=O)OC(C#N)c2cccc(Oc3ccccc3)c2)C1(C)C (mixture of isomers)
Result: 0.989

Task: Please do the same for CCc1nn(C)c(C(=O)NCc2ccc(Oc3ccc(C)cc3)cc2)c1Cl as well.
Result: 0.974

Task: Next entry: Cn1cc(-c2ccccc2)c(=O)c(-c2cccc(C(F)(F)F)c2)c1
Result: 1.01

Task: Then this compound: CCNc1nc(Cl)nc(NC(C)C)n1
Result: 0.945

Task: Again, but for O=S1OCC2C(CO1)C1(Cl)C(Cl)=C(Cl)C2(Cl)C1(Cl)Cl (stereo not drawn)
Result: 0.999

Task: Again, but for COc1cccc(C(=O)NN(C(=O)c2cc(C)cc(C)c2)C(C)(C)C)c1C
Result: 0.933

Task: Check CCOP(=O)(Sc1ccccc1)Sc1ccccc1 too.
Result: 0.927

Task: What would you report for Cc1cc(C)nc(NC(=O)NS(=O)(=O)c2ccccc2C(=O)OC2COC2)n1 ?
Result: 0.945

Task: What about this compound? CN(C)C(=O)Nc1cccc(C(F)(F)F)c1
Result: 0.991

Task: Please give the result for Cc1cc(Cl)ccc1O[C@H](C)C(=O)O too.
Result: 0.982

---

tested on: Streptococcus salivarius; assay: growth AUC relative to DMSO control (median of replicates) (fraction); higher = more growth (less inhibition), active = hit call of the paper; conditions: 20 µM; 24 h
For each of the compounds below, state its growth AUC.
Write no unit; give the number alone.

Task: What value of measured growth AUC is listed for CCS(=O)Cc1ccccc1OC(=O)NC (stereo not drawn) ?
Result: 0.987

Task: Consider next the compound CC(Oc1ccc(Oc2ccc(Cl)cc2Cl)cc1)C(=O)O (racemic) in the same way.
Result: 0.934

Task: Now try COc1cc(C)c(C(=O)c2c(OC)ccc(Br)c2C)c(OC)c1OC .
Result: 1.01

---

tested on: Clostridium difficile; assay: growth AUC relative to DMSO control (median of replicates) (fraction); higher = more growth (less inhibition), active = hit call of the paper; conditions: 20 µM; 24 h
experimental.endpoint: growth AUC
Kindly provide the number alone.

Task: Would you kindly share the measured growth AUC for O=[N+]([O-])c1ccccc1 ?
Result: 1.01

Task: One more compound: CCOP(=O)(OCC)Oc1ccc(S(C)(=O)=O)cc1
Result: 0.991

Task: // repeat for CO/C=C(/C(=O)OC)c1ccccc1COc1cccc(C(F)(F)F)n1 and report
Result: 1.01

Task: Another compound to check: Oc1ccccc1Cl
Result: 0.995

Task: Next record, please: CCOP(=S)(OCC)SCS(=O)(=O)C(C)(C)C
Result: 0.98

Task: Same question, COP(=O)(OC)O/C(C)=C/C(=O)N(C)C this time
Result: 0.987

Task: Also CCc1nn(C)c(C(=O)NCc2ccc(C(C)(C)C)cc2)c1Cl ?
Result: 0.972

---

test system: Bifidobacterium longum subsp. longum; experiment: growth AUC relative to DMSO control (median of replicates) (fraction); higher = more growth (less inhibition), active = hit call of the paper; conditions: 20 µM; 24 h
Label rule, in plain words: growth AUC of 1 and up is Fulfilled, under 1 is Not fulfilled.

Task: Check the entry CCC(C)c1cc([N+](=O)[O-])cc([N+](=O)[O-])c1OC(=O)C=C(C)C (stereo not drawn) : does growth AUC equal or exceed 1?
Result: Not fulfilled

Task: And CCSCCSP(=S)(OC)OC ?
Result: Fulfilled

Task: Also CCOC(=O)CCN(Cc1ccccc1)SN(C)C(=O)O/N=C(/C)SC , if possible.
Result: Fulfilled

Task: Same question for CC1CCCCC1NC(=O)Nc1ccccc1 (mixture of isomers) please.
Result: Not fulfilled

Task: One more compound: CC(=O)O.CC(=O)O.CC(=O)O.NC(N)=NCCCCCCCCNCCCCCCCCN=C(N)N
Result: Not fulfilled

Task: Next compound up: CC1(C)C(C(=O)OC(C#N)c2cccc(Oc3ccccc3)c2)C1(C)C (stereo not drawn)
Result: Not fulfilled

Value source: the supplement of paper PMC12669032
